Hey, just so you know, these numbers are from ChEMBL document CHEMBL1125554.

tested on: Serratia marcescens; assay: In vitro antibacterial activity against Serratia marcescens IFO 3736; format: functional; conditions: Serratia marcescens, IFO 3736; read-out: MIC
endpoint: MIC (µg/mL)

Worked set:
molecule	endpoint	reportedValue
CC1Sc2c(C(=O)O)c(=O)c3cc(Cl)c(N4CCN(C)CC4)cc3n21 (stereo not given)	MIC	0.1
CN1CCN(c2cc3c(cc2Cl)c(=O)c(C(=O)O)c2n3CS2)CC1	MIC	0.39
CC1COc2c(N3CCN(C)CC3)c(F)cc3c(=O)c(C(=O)O)cn1c23 (stereo not given)	MIC	0.39

A. CC1Sc2c(C(=O)O)c(=O)c3cc(F)c(N4CCOCC4)cc3n21 (stereo not given)
B. CC1Sc2c(C(=O)O)c(=O)c3cc(F)c(N4CCN(C)CC4)cc3n21 (stereo not given)
C. CCN1CCN(c2cc3c(cc2F)c(=O)c(C(=O)O)c2n3C(C)S2)CC1 (stereo not given)
D. CC1Sc2c(C(=O)O)c(=O)c3cc(F)c(N4CCCC4)cc3n21 (stereo not given)
Query string: Ascending by MIC, please. Please list the labels in the order you were asked to rank them.
Result string: B, C, A, D
(B: 0.05 µg/mL, C: 0.1 µg/mL, A: 0.39 µg/mL, D: 0.78 µg/mL)
